The measurements presented in this section are drawn from paper PMC6934871.

# tgt: DC25
# experiment: SPR (Biacore T200, DC25 immobilized on CM5, […] Langmuir fit); also inhibits peroxidase activity of purified DC25

molecule: O=S(=O)(O)c1ccc(-c2c3nc(c(-c4ccc(S(=O)(=O)O)cc4)c4ccc([nH]4)c(-c4ccc(S(=O)(=O)O)cc4)c4nc(c(-c5ccc(S(=O)(=O)O)cc5)c5ccc2[nH]5)C=C4)C=C3)cc1
tgt: DC25
Kd, nM: 1210
